# MEASURED ON: HIV-1 Env of isolate MGRM-D-012 (subtype D) (HIV-1)
# METHOD: cell-based or functional assay
Known IC50 (neutralization) of a selection of binders

>  <BINDER>
PGT-126 (antibody, V domains shown) VH: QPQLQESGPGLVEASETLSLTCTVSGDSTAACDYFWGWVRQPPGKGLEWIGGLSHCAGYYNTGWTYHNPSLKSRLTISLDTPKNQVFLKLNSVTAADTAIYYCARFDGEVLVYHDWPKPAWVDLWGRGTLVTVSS VL: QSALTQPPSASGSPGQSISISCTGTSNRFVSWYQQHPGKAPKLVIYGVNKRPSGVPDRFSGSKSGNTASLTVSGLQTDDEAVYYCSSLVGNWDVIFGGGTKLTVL

>  <RESULT>
> 50 µg/mL

$$$$
>  <BINDER>
PGT-128 (antibody, V domains shown) VH: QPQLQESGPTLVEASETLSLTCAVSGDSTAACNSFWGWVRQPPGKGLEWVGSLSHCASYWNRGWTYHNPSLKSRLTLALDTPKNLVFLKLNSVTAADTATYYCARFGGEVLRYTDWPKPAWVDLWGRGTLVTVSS VL: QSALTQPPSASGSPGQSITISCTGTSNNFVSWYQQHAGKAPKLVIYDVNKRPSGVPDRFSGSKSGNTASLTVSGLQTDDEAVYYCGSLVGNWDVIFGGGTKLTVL

>  <RESULT>
> 50 µg/mL

$$$$
>  <BINDER>
PGT-137 (antibody, V domains shown) VH: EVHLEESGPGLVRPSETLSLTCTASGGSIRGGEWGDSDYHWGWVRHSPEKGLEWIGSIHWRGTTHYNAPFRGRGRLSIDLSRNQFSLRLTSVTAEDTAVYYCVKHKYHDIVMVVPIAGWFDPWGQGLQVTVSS VL: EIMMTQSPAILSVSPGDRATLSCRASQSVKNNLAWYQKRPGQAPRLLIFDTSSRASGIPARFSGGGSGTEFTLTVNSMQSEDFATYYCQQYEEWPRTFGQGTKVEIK

>  <RESULT>
> 50 µg/mL

$$$$
>  <BINDER>
PGT-135 (antibody, V domains shown) VH: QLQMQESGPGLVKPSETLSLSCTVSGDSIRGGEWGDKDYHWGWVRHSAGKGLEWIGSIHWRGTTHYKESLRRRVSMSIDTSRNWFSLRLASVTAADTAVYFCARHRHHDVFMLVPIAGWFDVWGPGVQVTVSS VL: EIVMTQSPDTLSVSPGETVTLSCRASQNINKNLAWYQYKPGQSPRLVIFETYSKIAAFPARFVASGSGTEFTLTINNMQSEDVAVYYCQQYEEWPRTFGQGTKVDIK

>  <RESULT>
> 50 µg/mL

$$$$
>  <BINDER>
PGT-125 (antibody, V domains shown) VH: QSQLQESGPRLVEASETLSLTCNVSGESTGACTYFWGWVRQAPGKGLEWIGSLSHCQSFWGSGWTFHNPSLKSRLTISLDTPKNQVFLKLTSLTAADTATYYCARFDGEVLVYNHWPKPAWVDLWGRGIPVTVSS VL: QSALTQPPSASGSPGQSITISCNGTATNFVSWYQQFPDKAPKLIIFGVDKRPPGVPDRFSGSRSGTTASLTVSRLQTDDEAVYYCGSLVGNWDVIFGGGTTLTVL

>  <RESULT>
> 50 µg/mL

$$$$
>  <BINDER>
PGT-136 (antibody, V domains shown) VH: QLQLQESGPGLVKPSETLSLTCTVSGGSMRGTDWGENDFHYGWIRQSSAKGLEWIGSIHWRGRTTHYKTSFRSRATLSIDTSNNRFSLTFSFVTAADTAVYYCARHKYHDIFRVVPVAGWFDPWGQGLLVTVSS VL: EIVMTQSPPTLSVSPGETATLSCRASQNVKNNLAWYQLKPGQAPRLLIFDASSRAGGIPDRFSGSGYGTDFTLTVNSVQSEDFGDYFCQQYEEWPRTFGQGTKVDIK

>  <RESULT>
> 50 µg/mL

$$$$
>  <BINDER>
PGT-123 (antibody, V domains shown) VH: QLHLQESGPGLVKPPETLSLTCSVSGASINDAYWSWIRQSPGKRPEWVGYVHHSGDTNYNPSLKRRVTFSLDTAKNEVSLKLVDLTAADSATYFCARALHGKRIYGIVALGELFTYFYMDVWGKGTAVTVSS VL: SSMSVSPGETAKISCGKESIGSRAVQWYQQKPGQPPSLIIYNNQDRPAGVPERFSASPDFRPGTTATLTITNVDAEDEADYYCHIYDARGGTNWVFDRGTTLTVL

>  <RESULT>
> 50 µg/mL

$$$$
>  <BINDER>
PGT-131 (antibody, V domains shown) VH: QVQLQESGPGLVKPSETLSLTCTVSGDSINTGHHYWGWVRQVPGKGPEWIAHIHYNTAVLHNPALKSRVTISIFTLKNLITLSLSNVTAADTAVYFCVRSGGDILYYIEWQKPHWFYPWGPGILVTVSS VL: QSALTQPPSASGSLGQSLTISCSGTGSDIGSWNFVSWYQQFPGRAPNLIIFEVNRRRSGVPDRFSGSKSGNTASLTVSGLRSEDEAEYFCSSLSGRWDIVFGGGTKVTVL

>  <RESULT>
> 50 µg/mL

$$$$
>  <BINDER>
PGT-130 (antibody, V domains shown) VH: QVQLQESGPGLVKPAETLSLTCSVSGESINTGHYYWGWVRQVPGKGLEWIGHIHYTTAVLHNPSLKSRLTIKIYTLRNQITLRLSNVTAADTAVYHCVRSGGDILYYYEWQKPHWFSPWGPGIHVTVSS VL: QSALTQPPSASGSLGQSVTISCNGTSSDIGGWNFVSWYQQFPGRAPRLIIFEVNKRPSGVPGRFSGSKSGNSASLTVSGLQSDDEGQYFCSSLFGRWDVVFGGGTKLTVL

>  <RESULT>
> 50 µg/mL

$$$$

Shift focus to the following entry.
Memo: PGT-127 (antibody, V domains shown) VH: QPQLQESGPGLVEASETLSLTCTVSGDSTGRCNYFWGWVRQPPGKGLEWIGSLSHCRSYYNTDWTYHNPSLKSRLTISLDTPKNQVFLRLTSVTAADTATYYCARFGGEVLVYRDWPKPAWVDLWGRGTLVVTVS VL: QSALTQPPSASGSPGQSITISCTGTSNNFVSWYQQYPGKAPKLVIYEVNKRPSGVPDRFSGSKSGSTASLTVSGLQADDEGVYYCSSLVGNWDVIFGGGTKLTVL , reported IC50 (neutralization): > 50 µg/mL

Where these numbers come from: patent US20160264649A1
